The values you see were collected from the kinase profiling compilation of Christmann-Franck et al. (2016).

target: EPHB4 (human) (UniProt P54760); experiment: radiometric filter-binding kinase assay; conditions: compound 1.0 µM
Sequence (P54760 whole entry, looked up): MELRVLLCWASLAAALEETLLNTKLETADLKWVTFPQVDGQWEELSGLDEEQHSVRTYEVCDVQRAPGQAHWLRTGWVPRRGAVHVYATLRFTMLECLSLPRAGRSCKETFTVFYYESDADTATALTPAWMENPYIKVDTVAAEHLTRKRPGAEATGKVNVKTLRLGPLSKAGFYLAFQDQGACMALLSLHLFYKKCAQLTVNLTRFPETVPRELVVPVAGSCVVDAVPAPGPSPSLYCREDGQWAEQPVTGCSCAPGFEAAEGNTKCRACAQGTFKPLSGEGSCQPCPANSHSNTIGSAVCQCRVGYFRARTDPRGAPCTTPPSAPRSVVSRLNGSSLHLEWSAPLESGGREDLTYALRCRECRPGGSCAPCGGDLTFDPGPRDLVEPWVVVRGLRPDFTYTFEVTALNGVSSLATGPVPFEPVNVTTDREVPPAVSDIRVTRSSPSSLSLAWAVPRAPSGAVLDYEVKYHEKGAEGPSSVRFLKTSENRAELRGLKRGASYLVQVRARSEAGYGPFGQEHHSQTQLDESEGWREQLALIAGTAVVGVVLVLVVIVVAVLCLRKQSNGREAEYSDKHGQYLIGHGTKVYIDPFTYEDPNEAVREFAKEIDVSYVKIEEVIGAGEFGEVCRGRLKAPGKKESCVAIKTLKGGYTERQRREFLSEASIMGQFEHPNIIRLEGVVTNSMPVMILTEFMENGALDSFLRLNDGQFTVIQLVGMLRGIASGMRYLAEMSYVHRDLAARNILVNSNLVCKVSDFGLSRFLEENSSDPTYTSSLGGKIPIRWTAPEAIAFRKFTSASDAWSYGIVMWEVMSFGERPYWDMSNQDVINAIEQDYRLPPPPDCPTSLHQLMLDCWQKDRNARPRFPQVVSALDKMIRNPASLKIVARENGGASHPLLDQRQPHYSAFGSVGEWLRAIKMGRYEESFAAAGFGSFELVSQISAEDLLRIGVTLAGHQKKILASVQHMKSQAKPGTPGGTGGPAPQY
quantity: residual activity (%)

// solved cases for residual activity follow
• COc1ccc(-n2ncc3cnc(Nc4cc(OC)c(OC)c(OCCCN5CCN(C)CC5)c4)nc32)cc1 = 3
• c1ccc2c(-c3cnn4cc(-c5ccc(N6CCNCC6)cc5)cnc34)ccnc2c1 = 89
• CN(C)C/C=C/C(=O)Nc1cccc(C(=O)Nc2ccc(Nc3nccc(-c4cccnc4)n3)cc2)c1 = 109

1 = O=C(Nc1nc2cc(C(F)(F)F)cc(NC3CC3)n2n1)c1cccnc1
2 = COc1ccc(N(C(=O)Nc2c(C)cccc2C)c2cc(Nc3ccc(N4CCN(C)CC4)cc3)ncn2)c(OC)c1
In: // which entry reports the smaller residual activity, 1 or 2 ? Please indicate the selected item by its label.
Out: 2
(2: 5%, 1: 96%)

---

molecular target: CDK2 CCNA2 (human) (UniProt P20248+P24941); experiment: radiometric filter-binding kinase assay; conditions: compound 1.0 µM
quantity: residual activity (%)

// solved cases for residual activity follow
* C[C@H]1CCCC(=O)CCC/C=C/c2cc(O)cc(O)c2C(=O)O1 | 82
* CCCCCc1ccc(/C=C/[C@H](O)[C@@H](CO)NC)cc1 | 79
* O=C(NOCC(O)CO)c1ccc(F)c(F)c1Nc1ccc(I)cc1Cl (configuration not stated) | 95
* COc1cc(O)c2c(c1)/C=C/C[C@H](O)[C@H](O)C(=O)/C=C\C[C@H](C)OC2=O | 88
* CC(C)(C#N)c1ccc(N2C(=O)OCc3cnc4ccc(-c5cnc6ccccc6c5)cc4c32)cc1 | 90

1 = COc1cc(C(=O)N2CCOCC2)c(F)cc1Nc1ncc(C(F)(F)F)c(NC2CC2)n1
2 = O=C1Nc2nc(-c3c(O)cccc3OCC3CC3)cc(C3CCCNC3)c2CO1 (configuration not stated)
In: // which entry reports the smaller residual activity, 1 or 2 ? Please indicate the selected item by its label.
Out: 2
(2: 58%, 1: 94%)

---

target: IRAK4 (human); test: radiometric filter-binding kinase assay; settings: compound 1.0 µM
quantity: residual activity (%)

* CN(C)C/C=C/C(=O)Nc1cccc(C(=O)Nc2ccc(Nc3nccc(-c4cccnc4)n3)cc2)c1 | 88
* NC(=O)c1ccc(-c2ccc(Oc3cncc4sc(-c5nn[nH]n5)cc34)cc2)cc1 | 88
* CNc1nc(-c2ccc3c(N)n[nH]c3c2)cc(N2C[C@@H](C(=O)NC3CCCCC3)CC[C@H]2C)n1 | 92

---

target: UniProt:Q8N4C8; experiment: radiometric filter-binding kinase assay; details: compound 1.0 µM
Sequence (Q8N4C8 whole entry, looked up): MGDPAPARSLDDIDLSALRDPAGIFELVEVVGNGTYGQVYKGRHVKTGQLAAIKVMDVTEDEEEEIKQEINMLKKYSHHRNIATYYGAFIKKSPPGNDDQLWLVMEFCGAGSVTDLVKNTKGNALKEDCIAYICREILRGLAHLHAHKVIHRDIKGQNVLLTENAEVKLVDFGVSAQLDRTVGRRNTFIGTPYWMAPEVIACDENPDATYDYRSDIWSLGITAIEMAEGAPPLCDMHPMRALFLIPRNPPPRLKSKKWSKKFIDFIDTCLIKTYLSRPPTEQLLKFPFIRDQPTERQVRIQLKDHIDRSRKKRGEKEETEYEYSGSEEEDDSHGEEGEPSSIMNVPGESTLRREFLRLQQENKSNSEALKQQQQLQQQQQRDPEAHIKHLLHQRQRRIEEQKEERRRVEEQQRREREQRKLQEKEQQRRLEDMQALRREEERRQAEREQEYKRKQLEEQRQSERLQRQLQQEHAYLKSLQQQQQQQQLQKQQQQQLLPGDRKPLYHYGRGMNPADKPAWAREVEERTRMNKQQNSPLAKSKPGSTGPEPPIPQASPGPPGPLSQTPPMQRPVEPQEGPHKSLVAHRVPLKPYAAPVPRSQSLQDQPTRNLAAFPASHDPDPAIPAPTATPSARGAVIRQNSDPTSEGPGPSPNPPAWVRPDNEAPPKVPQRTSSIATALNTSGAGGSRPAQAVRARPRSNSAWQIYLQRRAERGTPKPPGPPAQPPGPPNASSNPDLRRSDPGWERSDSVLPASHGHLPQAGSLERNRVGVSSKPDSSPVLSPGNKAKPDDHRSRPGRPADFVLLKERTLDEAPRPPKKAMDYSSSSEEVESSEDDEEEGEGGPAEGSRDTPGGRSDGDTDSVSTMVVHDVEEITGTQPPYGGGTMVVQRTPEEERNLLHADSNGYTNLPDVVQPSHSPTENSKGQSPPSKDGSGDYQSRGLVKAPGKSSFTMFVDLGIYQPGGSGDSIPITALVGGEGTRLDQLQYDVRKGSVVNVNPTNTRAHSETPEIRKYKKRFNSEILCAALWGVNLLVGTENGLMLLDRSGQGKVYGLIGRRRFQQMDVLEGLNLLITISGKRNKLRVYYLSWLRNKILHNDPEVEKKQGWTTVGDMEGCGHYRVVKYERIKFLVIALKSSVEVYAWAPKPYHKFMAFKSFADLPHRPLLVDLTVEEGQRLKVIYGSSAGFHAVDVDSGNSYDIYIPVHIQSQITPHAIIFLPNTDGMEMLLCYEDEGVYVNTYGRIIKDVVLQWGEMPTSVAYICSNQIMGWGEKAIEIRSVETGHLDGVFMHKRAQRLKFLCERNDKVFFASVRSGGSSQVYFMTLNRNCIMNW
quantity: residual activity (%)

• Oc1ccc2ccccc2c1SSc1c(O)ccc2ccccc12 = 3

1 = NS(=O)(=O)OC[C@@H]1C[C@@H](n2ccc3c(N[C@H]4CCc5ccccc54)ncnc32)C[C@@H]1O
2 = c1ccc2c(-c3cnn4cc(-c5ccc(N6CCNCC6)cc5)cnc34)ccnc2c1
In: Which numeric residual activity is bigger, that of 1 or that of 2 ? Please indicate the selected item by its label.
Out: 1

---

biological target: UniProt:Q8IWQ3; experiment: radiometric filter-binding kinase assay; settings: compound 0.1 µM
Sequence (Q8IWQ3 whole entry, looked up): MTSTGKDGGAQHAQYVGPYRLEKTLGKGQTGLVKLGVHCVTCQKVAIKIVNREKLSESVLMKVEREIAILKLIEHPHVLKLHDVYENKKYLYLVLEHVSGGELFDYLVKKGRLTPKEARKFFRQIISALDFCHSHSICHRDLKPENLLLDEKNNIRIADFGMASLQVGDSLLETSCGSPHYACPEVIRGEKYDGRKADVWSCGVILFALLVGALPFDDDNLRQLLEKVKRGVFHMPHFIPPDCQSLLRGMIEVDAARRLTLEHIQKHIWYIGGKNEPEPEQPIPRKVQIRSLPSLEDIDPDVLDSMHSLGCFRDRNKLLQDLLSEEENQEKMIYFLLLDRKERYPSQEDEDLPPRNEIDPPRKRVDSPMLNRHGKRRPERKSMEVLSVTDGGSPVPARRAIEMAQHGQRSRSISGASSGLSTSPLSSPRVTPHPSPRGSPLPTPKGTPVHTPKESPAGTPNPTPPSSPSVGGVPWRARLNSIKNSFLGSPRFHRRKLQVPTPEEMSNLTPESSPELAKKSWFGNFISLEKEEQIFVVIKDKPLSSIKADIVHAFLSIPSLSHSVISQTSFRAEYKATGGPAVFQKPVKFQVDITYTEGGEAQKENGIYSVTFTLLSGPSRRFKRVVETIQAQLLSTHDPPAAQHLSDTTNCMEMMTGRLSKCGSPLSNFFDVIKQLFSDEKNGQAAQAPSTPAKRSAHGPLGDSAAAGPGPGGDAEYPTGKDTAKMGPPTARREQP
quantity: residual activity (%)

- c1ccc2c(-c3cnn4cc(-c5ccc(N6CCNCC6)cc5)cnc34)ccnc2c1: 88
- C=CC(=O)N1CCC[C@@H](n2nc(-c3ccc(Oc4ccccc4)cc3)c3c(N)ncnc32)C1: 100
- Cc1ccc(Sc2cnc(Nc3cccc(Br)n3)s2)cc1C(=O)N1CCN(C(=O)CN)CC1: 88
- CC1=C(CO)C(=O)O[C@@H]([C@@H](C)[C@H]2CC[C@H]3[C@@H]4C[C@H]5O[C@]56[C@@H](O)C=CC(=O)[C@]6(C)C4CC[C@]23C)C1 (some centres undefined): 99
